This collection of values is drawn from patent US20260200926A1.

Target: Human TREM2 (Homo sapiens)
Construct: expressed in transfected cells
Measurement notes: Human TREM2 activity: cellular phosphorylation of Syk (AlphaLISA SureFire Ultra p-SYK) in HEK293/DAP12+TREM2 stable cell line
Assay type: cell-based
Test settings: HEK293; maximal response relative to reference agonist example 1B (remaining examples); read-out: Emax
Description: Human TREM2, in vitro Measurement of Triggering Receptor Expressed on Myeloid Cells 2 activity using cellular phosphorylation of Spleen Tyrosine Kinase (“Syk”) Assay […] TREM2 signaling through DAP12 was monitored in the HEK293/DAP12+TREM2 stable cell line by measuring the phosphorylation levels of the Syk kinase using the commercially available AlphaLISA SureFire Ultra p-SYK (Tyr525/526) Assay Kit (PerkinElmer #ALSU-PSYK), based on the Perkin Elmer AlphaScreen/AlphaLISA technology. […]
Listing: Emax of selected compounds

[
  {
    "Compound": "Cc1nc2c(-c3ccc(C(F)(F)F)cc3F)nc(N3C[C@@H](c4cnn(C)c4)OC4(CCC4)C3)cc2c(=O)n1C (single isomer, unassigned) [Example 143A]",
    "Emax": "75 to 110%"
  },
  {
    "Compound": "Cc1nc2c(-c3ccc(F)cc3F)nc(N3CCOC(c4cnn(C)c4)C3)nc2c(=O)n1C (stereo not shown)",
    "Emax": "< 75%"
  },
  {
    "Compound": "Cc1nc2c(-c3cc(F)c(F)c(F)c3)nc(N3CCOC(c4cnn(C)c4)C3)nc2c(=O)n1C (stereo not shown)",
    "Emax": "< 75%"
  },
  {
    "Compound": "Cc1nc2c(-c3ccc(C(F)(F)F)nc3)nc(N3CCOC(c4cnn(C5CC5)c4)C3)nc2c(=O)n1C (racemic)",
    "Emax": "< 75%"
  },
  {
    "Compound": "Cc1nc2c(-c3ccc(C(F)(F)F)cc3F)nc(N3C[C@H](c4cnn(C)c4)OC4(CC4)C3)cc2c(=O)n1C (single isomer, unassigned) [Example 145B]",
    "Emax": "< 75%"
  },
  {
    "Compound": "Cc1cc([C@H]2CN(c3cc4c(=O)n(C)c(C)nc4c(-c4ccc(Cl)cc4F)n3)CC3(CC3)O2)ccn1 (single isomer, unassigned) [Example 128B]",
    "Emax": "75 to 110%"
  },
  {
    "Compound": "Cc1nc2c(-c3ccc(C(F)(F)F)cc3F)nc(N3C[C@@H](C)O[C@@H](c4cnn(C5CC5)c4)C3)nc2c(=O)n1C (single isomer, unassigned) [Example 195B]",
    "Emax": "75 to 110%"
  },
  {
    "Compound": "Cc1nc2c(-c3ccc(Cl)cc3F)nc(N3CCn4nc(C(F)(F)F)nc4C3)nc2c(=O)n1C",
    "Emax": "< 75%"
  },
  {
    "Compound": "Cc1nc2c(-c3ccc(C#N)cc3F)nc(N3C[C@@H](C)O[C@@H](c4cnn(C5CC5)c4)C3)cc2c(=O)n1C (single isomer, unassigned) [Example 200B]",
    "Emax": "75 to 110%"
  },
  {
    "Compound": "Cc1nc2c(-c3cc(F)c(F)cc3F)nc(N3C[C@@H](c4cnn(C)c4)OC(C)(C)C3)nc2c(=O)n1C (single isomer, unassigned) [Example 101A]",
    "Emax": "75 to 110%"
  },
  {
    "Compound": "COCC1CN(c2nc(-c3ccc(Cl)cc3F)c3nc(C)n(C)c(=O)c3n2)CCO1 (stereo not shown)",
    "Emax": "75 to 110%"
  },
  {
    "Compound": "C[C@@H]1CN(c2nc(-c3ccc(F)cc3F)c3nc(C(F)(F)F)n(C)c(=O)c3n2)C[C@H](c2cnn(C3CC3)c2)O1 (single isomer, unassigned) [Example 183B]",
    "Emax": "75 to 110%"
  },
  {
    "Compound": "Cc1nc2c(-c3ccc(Cl)cc3F)nc(N3CC(c4cnn(C)c4)OC(F)(F)C3)nc2c(=O)n1C (stereo not shown)",
    "Emax": "75 to 110%"
  }
]

====

Listing: EC50 of selected compounds
Target: Human TREM2 (Homo sapiens, UniProt Q9NZC2)
Construct: expressed in transfected cells
Sequence (Q9NZC2 19-230): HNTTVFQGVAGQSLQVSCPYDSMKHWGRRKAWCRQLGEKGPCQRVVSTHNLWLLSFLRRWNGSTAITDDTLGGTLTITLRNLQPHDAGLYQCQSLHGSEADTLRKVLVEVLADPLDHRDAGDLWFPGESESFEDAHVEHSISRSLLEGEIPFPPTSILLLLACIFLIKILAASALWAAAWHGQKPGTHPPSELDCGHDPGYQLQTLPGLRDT
Sequence (O43914 22-113 partner): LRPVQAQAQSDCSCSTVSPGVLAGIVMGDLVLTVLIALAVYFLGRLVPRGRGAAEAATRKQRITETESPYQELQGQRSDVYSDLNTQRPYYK
Measurement notes: Human TREM2 activity: cellular phosphorylation of Syk (AlphaLISA SureFire Ultra p-SYK) in HEK293/DAP12+TREM2 stable cell line
Type: cell-based
Test settings: phospho-Syk AlphaLISA signal, HEK293/DAP12+TREM2 cells; concentration giving 50% of maximal response; read-out: EC50

[
  {
    "Compound": "Cc1cc([C@H]2C[C@H](c3nc(-c4ccc(Cl)cc4F)c4nc(C)n(C)c(=O)c4n3)CCO2)ccn1 (single isomer, unassigned)",
    "Target": "Human TREM2 (Homo sapiens, UniProt Q9NZC2)",
    "EC50": "100 to 1000 nM"
  },
  {
    "Compound": "Cc1nc2c(-c3ccc(Cl)cc3F)nc(N3CCCC(N4CC(F)(F)C4)C3)nc2c(=O)n1C (stereo not shown)",
    "Target": "Human TREM2 (Homo sapiens, UniProt Q9NZC2)",
    "EC50": "> 1000 nM"
  },
  {
    "Compound": "Cc1nc2c(-c3ccc(C(F)(F)F)nc3)nc(N3CCC(F)(F)[C@H](c4cnn(C)c4)C3)nc2c(=O)n1C (single isomer, unassigned)",
    "Target": "Human TREM2 (Homo sapiens, UniProt Q9NZC2)",
    "EC50": "10 to 100 nM"
  },
  {
    "Compound": "Cc1nc2c(-c3ccc(Cl)cc3F)nc(N3CCOC(c4ccnn4C)C3)nc2c(=O)n1C (stereo not shown)",
    "Target": "Human TREM2 (Homo sapiens, UniProt Q9NZC2)",
    "EC50": "100 to 1000 nM"
  },
  {
    "Compound": "Cc1nc2c(C3CCNCC3)nc(N3CCOC(c4cnn(C)c4)C3)nc2c(=O)n1C (stereo not shown)",
    "Target": "Human TREM2 (Homo sapiens, UniProt Q9NZC2)",
    "EC50": "> 1000 nM"
  },
  {
    "Compound": "Cc1nc2c(-c3ccc(C(F)(F)F)cc3F)nc(N3C[C@H](c4cnn(C)c4)OC(C)(C)C3)nc2c(=O)n1C (single isomer, unassigned) [Example 100B]",
    "Target": "Human TREM2 (Homo sapiens, UniProt Q9NZC2)",
    "EC50": "100 to 1000 nM"
  },
  {
    "Compound": "Cc1nc2c(-c3ccc(Cl)cc3F)nc(N3CC(Oc4cnn(C)c4)C3)nc2c(=O)n1C",
    "Target": "Human TREM2 (Homo sapiens, UniProt Q9NZC2)",
    "EC50": "100 to 1000 nM"
  }
]

====

Target: Human TREM2 (Homo sapiens)
Construct: expressed in transfected cells
Measurement notes: Human TREM2 activity: cellular phosphorylation of Syk (AlphaLISA SureFire Ultra p-SYK) in HEK293/DAP12+TREM2 stable cell line
Assay type: cell-based
Test settings: phospho-Syk AlphaLISA signal, HEK293/DAP12+TREM2 cells; concentration giving 50% of maximal response; read-out: EC50
pEC50: −log10 of the molar value.

[
  {
    "Compound": "Cc1nc2c(-c3ccc(Cl)cc3F)nc(N3CC(COc4cnn(C)c4)C3)nc2c(=O)n1C [Example 15]",
    "Target": "Human TREM2 (Homo sapiens)",
    "pEC50": "< 6.00"
  },
  {
    "Compound": "Cc1cc([C@H]2CN(c3nc(-c4ccc(C(F)(F)F)cc4F)c4nc(C)n(C)c(=O)c4n3)CC(C)(C)O2)ccn1 (single isomer, unassigned) [Example 124B]",
    "Target": "Human TREM2 (Homo sapiens)",
    "pEC50": "8.00 to 9.00"
  },
  {
    "Compound": "Cc1nc2c(-c3ccc(F)cc3F)nc(N3C[C@H](c4cnn(C)c4)OC(F)(F)C3)nc2c(=O)n1C (single isomer, unassigned) [Example 156B]",
    "Target": "Human TREM2 (Homo sapiens)",
    "pEC50": "7.00 to 8.00"
  }
]

====

Target: Human TREM2 (Homo sapiens, UniProt Q9NZC2)
Construct: expressed in transfected cells
Measurement notes: Human TREM2 activity: cellular phosphorylation of Syk (AlphaLISA SureFire Ultra p-SYK) in HEK293/DAP12+TREM2 stable cell line
Type: cell-based
Test settings: phospho-Syk AlphaLISA signal, HEK293/DAP12+TREM2 cells; concentration giving 50% of maximal response; read-out: EC50
Measure name: EC50

[
  {
    "Compound": "Cc1cc([C@H]2CN(c3nc(-c4ccc(F)cc4F)c4nc(C)n(C)c(=O)c4n3)CC(C)(C)O2)ccn1 (single isomer, unassigned) [Example 170B]",
    "Experimental result": "1 to 10 nM"
  },
  {
    "Compound": "Cc1nc2c(-c3ccc(Cl)cc3F)nc(N3CCOC(c4cnn(C5CN(C)C5)c4)C3)nc2c(=O)n1C (stereo not drawn)",
    "Experimental result": "10 to 100 nM"
  },
  {
    "Compound": "Cc1nc2c(-c3ccc(C(F)(F)F)cc3F)nc([C@@H]3CCO[C@H](c4cnn(C5CC5)c4)C3)cc2c(=O)n1C (single isomer, unassigned) [Example 153A]",
    "Experimental result": "1 to 10 nM"
  },
  {
    "Compound": "Cc1nc2c(-c3ccc(C(F)(F)F)cc3F)nc(N3C[C@H](c4cnn(C)c4)OC(C)(C)C3)cc2c(=O)n1C (single isomer, unassigned) [Example 134B]",
    "Experimental result": "100 to 1000 nM"
  },
  {
    "Compound": "Cc1cc([C@@H]2CN(c3cc4c(=O)n(C)c(C)nc4c(-c4ccc(C(F)(F)F)nc4)n3)CCO2)ccn1 (single isomer, unassigned) [Example 138A]",
    "Experimental result": "10 to 100 nM"
  },
  {
    "Compound": "Cc1nc2c(-c3ccc(F)c(F)c3F)nc(N3CCOC(c4cnn(C)c4)C3)nc2c(=O)n1C (stereo not drawn)",
    "Experimental result": "> 1000 nM"
  }
]
